# target_desc: Bifunctional epoxide hydrolase 2 (Homo sapiens)
# condition_label: at 50 µM
# Description: Inhibition of sEH (unknown origin) assessed as 6-methoxy-2-naphthaldehyde formation at 50 uM by fluorometry assay using 40 uM cyano-(6-methoxy-naphthalen-2-yl)-methyl ester as substrate
Below, each entry is listed alongside its reported inhibition.
Answer with a number only, understood to be in %.

smiles_repr	endpoint_result
COc1cc2c(c(OC)c1OC)C(=O)c1c(cc(C)c(O[C@@H]3O[C@H](CO)[C@@H](O)[C@H](O)[C@H]3O)c1OC)C2=O	28.6

Memo: COc1cc2c(c(OC)c1OC)C(=O)c1c(cc(C)c(O)c1OC)C2=O , reported inhibition: 59.8

Reported inhibition ( COc1cc(O[C@@H]2O[C@H](CO)[C@@H](O)[C@H](O)[C@H]2O)c2c(OC)c(C(C)=O)c(O[C@H]3OC[C@@](O)(CO)[C@@H]3O)cc2c1 ) = 91.6
